Hello, the source for this data is patent US20240246979A1, in case you need it.

molecular target: cGAS (Homo sapiens); assay: In vitro inhibition assay of cGAS activity (cGAMP production, RapidFire mass spectrometry); assay type: biochemical; design: Insert cDNA encoding full-length of human cGAS; His6; made in house; host or cells: E. coli BL21(DE3); details: 10 nM recombinant human cGAS, 60 nM 75-bp dsDNA, 50 μM ATP, 50 μM GTP, 3 hrs
Sequence (Q8N884 whole entry): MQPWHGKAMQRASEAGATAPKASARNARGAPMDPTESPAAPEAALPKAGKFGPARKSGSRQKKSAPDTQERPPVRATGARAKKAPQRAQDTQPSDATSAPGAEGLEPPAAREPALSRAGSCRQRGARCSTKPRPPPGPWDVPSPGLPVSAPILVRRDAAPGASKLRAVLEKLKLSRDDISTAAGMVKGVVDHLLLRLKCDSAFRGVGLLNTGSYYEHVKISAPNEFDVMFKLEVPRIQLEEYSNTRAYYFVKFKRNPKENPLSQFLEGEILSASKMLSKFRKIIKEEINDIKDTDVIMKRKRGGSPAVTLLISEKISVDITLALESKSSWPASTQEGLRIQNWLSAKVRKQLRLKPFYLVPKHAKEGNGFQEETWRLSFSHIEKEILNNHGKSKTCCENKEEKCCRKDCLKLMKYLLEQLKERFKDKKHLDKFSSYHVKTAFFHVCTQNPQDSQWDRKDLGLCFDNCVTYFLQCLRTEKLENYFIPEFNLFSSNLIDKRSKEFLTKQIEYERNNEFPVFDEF
Below, each entry is listed with its recorded IC50.

{"columns": ["compound", "units", "IC50"],
 "data": [
  ["Cn1ncc(-c2cc(Cl)c(Cl)c3[nH]c4c(c23)CC(=O)NCC4CCC(F)F)n1 (racemic) [Example 177]", "nM", 23.1],
  ["C[C@@H]1C(=O)NCCc2[nH]c3c(Cl)c(Cl)cc(OCCCO)c3c21 (single isomer, unassigned) [Example 14B]", "nM", 302],
  ["Cc1conc1Nc1cc(Cl)c(Cl)c2[nH]c3c(c12)C(C)C(=O)NCC3 (stereo not drawn) [Example 67]", "nM", 30.6],
  ["N#CCOc1cc(Cl)c(Cl)c2c1c1c3n2CCC3CNC(=O)C1 (stereo not drawn) [Example 115]", "nM", 22.4],
  ["C[C@H]1C(=O)NCCc2[nH]c3c(Cl)c(Cl)cc(N[C@@H]4CCOC4)c3c21 (single isomer, unassigned) [Example 64]", "nM", 37.9],
  ["CC(O)COc1cc(Cl)c(Cl)c2[nH]c3c(c12)CC(=O)NCC3 (stereo not drawn) [Example 87]", "nM", 36],
  ["C[C@H]1C(=O)NCCc2[nH]c3c(Cl)c(Cl)cc(CC#N)c3c21 (single isomer, unassigned) [Example 90]", "nM", 552],
  ["Cn1ccc(-c2cc(Cl)c(Cl)c3[nH]c4c(c23)CC(=O)NCC4)n1 [Example 3]", "nM", 111],
  ["CC1C(=O)NCCc2[nH]c3c(Cl)c(Cl)cc(NCC(F)F)c3c21 (stereo not drawn) [Example 70]", "nM", 30.5],
  ["C[C@H](O)COc1cc(Cl)c(Cl)c2[nH]c3c(c12)[C@H](C)C(=O)NCC3 (single isomer, unassigned) [Example 85]", "nM", 2770],
  ["CC1C(=O)NCCc2[nH]c3c(Cl)c(Cl)cc(OC4CCOC4)c3c21 (mixture of isomers) [Example 86]", "nM", 51.9],
  ["Cn1ncc(-c2cc(Cl)c(Cl)c3[nH]c4c(c23)CC(=O)NC[C@H]4CC(C)(C)O)n1 (single isomer, unassigned) [Example 103]", "nM", 17.6],
  ["COCCOc1cc(Cl)c(Cl)c2[nH]c3c(c12)[C@H](C)C(=O)NCC3(C)C (single isomer, unassigned) [Example 185]", "nM", 1890],
  ["C[C@@H]1C(=O)NCCc2[nH]c3c(Cl)c(Cl)cc(NC(=O)CO)c3c21 (single isomer, unassigned) [Example 12A]", "nM", 16.3],
  ["Cn1c2c(c3c(CC#N)cc(Cl)c(Cl)c31)CC(=O)NC[C@H]2CCO (single isomer, unassigned) [Example 123]", "nM", 14.1]
]}
